molecular target: Cytochrome P450 3A4 (Homo sapiens); assay: Cytochrome panel assay with activity outcomes; details: recombinant CYP, pro-luciferin dealkylation, luminescence, p450-cyp3a4; series mostly up to 57.1 µM
Among all 16,000 compounds or so, about 5,100 (32%) were called active. Not shown: some 25% with an inconclusive outcome. The call rests on the fitted dose curve; in most records, active means well fitted curve in the direction sought with a large enough effect; inconclusive means small, poorly fitted or top-dose-only effect, or effect the other way; inactive means no such curve, though single readings can be large or run the other way. Some of the results follow.
Labels: y (active), n (inactive)

- Molecule: "O=c1c(-c2nc3ccccc3s2)cccn1Cc1ccc(Cl)cc1"
  Class: "y"
- Molecule: "CC(=O)NNc1nc2ccccc2s1"
  Class: "n"
- Molecule: "Nc1nc(-c2ccccc2)cc(-c2ccccc2O)n1"
  Class: "n"
- Molecule: "C=CCn1c(-c2cccn(Cc3ccccc3)c2=O)n[nH]c1=S"
  Class: "y"
- Molecule: "O=C(NNc1nc2ccccc2s1)c1ccccc1F"
  Class: "n"
- Molecule: "C=CC(=O)NC(NC(=O)C=C)c1ccc(Br)cc1"
  Class: "n"
- Molecule: "Cc1ccc(S(=O)(=O)N2CCN(C(=O)c3ccccc3)C2C(C)C)cc1 (stereo not given)"
  Class: "y"
- Molecule: "CCOC(=O)N1CCN(c2nc(-c3ccco3)cc(C(F)(F)F)n2)CC1"
  Class: "n"
- Molecule: "COc1ccccc1CN1CC[C@@]2(CCCN(C(C)=O)C2)C1"
  Class: "n"
- Molecule: "N#Cc1c(-c2ccccc2)ccnc1Oc1ccccc1"
  Class: "n"
- Molecule: "O=C(CCCCC(=O)Nc1c(I)cc(I)c(C(=O)O)c1I)Nc1c(I)cc(I)c(C(=O)O)c1I"
  Class: "n"
- Molecule: "O=C(O)CCCC[C@H]1CCSS1"
  Class: "n"
- Molecule: "O=S(=O)(Nc1ccc(Cc2ccncc2)cc1)c1ccc(Cl)c(Cl)c1"
  Class: "y"
- Molecule: "O=C(O)C1CCCN1C(=O)OCc1ccccc1 (stereo not given)"
  Class: "n"
- Molecule: "CCCCn1nnnc1SCC(=O)N1CCCC1"
  Class: "n"
- Molecule: "N[C@@H](Cn1ccc(=O)n(Cc2ccccc2C(=O)O)c1=O)C(=O)O"
  Class: "n"
- Molecule: "Cc1ccc(S(=O)(=O)ON=C2CCN(S(=O)(=O)c3ccccc3)CC2)cc1"
  Class: "n"
- Molecule: "CN(C)CCOC(=O)C1(c2ccccc2)CCOCC1"
  Class: "n"
- Molecule: "O=C(Nc1cccc(F)c1)N1CCCC2(CCN(S(=O)(=O)c3ccccc3)CC2)C1"
  Class: "y"
- Molecule: "NC1(C(=O)O)C[C@@H](C(=O)O)[C@H](C(=O)O)C1"
  Class: "n"
- Molecule: "CC(=O)N1CCN(S(=O)(=O)c2ccccc2)C1c1ccccc1 (stereo not given)"
  Class: "y"
- Molecule: "COC(=O)c1nn(C23CC4CC(CC(C4)C2)C3)c2c1C(=O)N(c1ccc(F)cc1)C2=O"
  Class: "n"
- Molecule: "CCCS(=O)(=O)N1CCCC(C(=O)N2CCN(C(=O)OCC)CC2)C1 (stereo not given)"
  Class: "n"
- Molecule: "Cc1ccc(-n2[nH]c(C)c(C=Nc3ccc4[nH]c(=O)[nH]c4c3)c2=O)cc1C"
  Class: "y"
- Molecule: "Cc1noc(C)c1-c1nccc(Nc2ccc(F)cc2)n1"
  Class: "y"
- Molecule: "FC(F)(F)c1cc(CN2CC3(CCNCC3)C2)cc(C(F)(F)F)c1"
  Class: "n"
- Molecule: "O=C(Nc1ccc(-c2cc3ccccc3oc2=O)c(Cl)c1)c1cccnc1"
  Class: "n"
- Molecule: "COc1ccccc1CN1CCC2(CC1)CCN(C(=O)c1ccco1)CC2"
  Class: "n"
- Molecule: "CC(=O)N1CC2(CC2)CC1c1ccccc1 (stereo not given)"
  Class: "n"
- Molecule: "CSc1nc(-c2ccccc2)nn1C(=O)c1ccccc1"
  Class: "n"
- Molecule: "O=C(N/N=C/c1ccc2c(c1)OCO2)/C(=C/c1ccc2c(c1)OCO2)NC(=O)c1ccccc1"
  Class: "y"
- Molecule: "Cc1ccc(CNC(=O)C2CCCN2C(=O)NCc2ccccc2)cc1 (stereo not given)"
  Class: "y"
- Molecule: "CS(=O)(=O)N1CCC2(CC1)CN(Cc1cc(C(F)(F)F)cc(C(F)(F)F)c1)C2"
  Class: "n"
- Molecule: "Nc1c(-c2ccccc2)cnn1-c1cccc([N+](=O)[O-])c1"
  Class: "y"
- Molecule: "O=C(NC1CCCC1)c1cnn2c(C(F)(F)F)cc(-c3ccco3)nc12"
  Class: "y"

###

molecular target: Cytochrome P450 3A4 (Homo sapiens) (UniProt P08684); assay: Cytochrome panel assay with activity outcomes; details: recombinant CYP, pro-luciferin dealkylation, luminescence, p450-cyp3a4; series mostly up to 57.1 µM; on activity, negative = inhibition: on the % scale 0 is the no-effect control and ±100 the full control effect
Sequence (P08684 whole entry, looked up): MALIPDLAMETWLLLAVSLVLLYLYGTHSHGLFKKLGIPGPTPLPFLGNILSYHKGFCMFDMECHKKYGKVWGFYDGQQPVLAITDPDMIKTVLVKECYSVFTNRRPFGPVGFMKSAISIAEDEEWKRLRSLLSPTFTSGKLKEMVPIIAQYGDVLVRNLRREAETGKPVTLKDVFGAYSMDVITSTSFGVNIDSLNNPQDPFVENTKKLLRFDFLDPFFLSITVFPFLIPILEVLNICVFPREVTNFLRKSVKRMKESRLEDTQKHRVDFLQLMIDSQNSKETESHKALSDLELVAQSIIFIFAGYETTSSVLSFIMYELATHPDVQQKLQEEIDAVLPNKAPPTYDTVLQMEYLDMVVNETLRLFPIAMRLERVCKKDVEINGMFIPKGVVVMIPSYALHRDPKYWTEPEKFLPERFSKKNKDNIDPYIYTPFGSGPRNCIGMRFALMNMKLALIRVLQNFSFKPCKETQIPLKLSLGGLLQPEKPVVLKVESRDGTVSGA
Among all 16,000 compounds or so, about 5,100 (32%) were called active. Not shown: some 25% with an inconclusive outcome. The list shows a part of the results.
Overview of reported activity, negative = inhibition across a group of compounds:

- Compound: "CCNC(=S)NNC(=O)c1cc(C2CC2)nc2ccccc12"
  System under test: "Cytochrome P450 3A4 (Homo sapiens) (UniProt P08684)"
  activity, negative = inhibition: "-10.5% [at 2.29 µM] (inactive)"
- Compound: "Cc1cc(Cl)ccc1OC(C)C(=O)Nc1ccc(S(=O)(=O)Nc2cnc3ccccc3n2)cc1 (stereo not given)"
  System under test: "Cytochrome P450 3A4 (Homo sapiens) (UniProt P08684)"
  activity, negative = inhibition: "-1.77% [at 2.29 µM] (inactive)"
- Compound: "CC(=O)OC[C@@H]1O[C@H](CCO/N=C\\[C@@H](C)[C@H](OCc2ccccc2)C(C)C)C=C[C@@H]1OC(C)=O"
  System under test: "Cytochrome P450 3A4 (Homo sapiens) (UniProt P08684)"
  activity, negative = inhibition: "-26.2% [at 11.4 µM] (inactive)"
- Compound: "CC(C)(N=NC(C)(C)C(=N)N)C(=N)N"
  System under test: "Cytochrome P450 3A4 (Homo sapiens) (UniProt P08684)"
  activity, negative = inhibition: "-6.94% [at 11.4 µM] (inactive)"
- Compound: "CCOC(=O)c1c(NC(=O)Cn2nc([N+](=O)[O-])c(Br)c2C)sc2c1CCC(C)C2 (stereo not given)"
  System under test: "Cytochrome P450 3A4 (Homo sapiens) (UniProt P08684)"
  activity, negative = inhibition: "-21.8% [at 2.29 µM] (inactive)"
- Compound: "CCOC(=O)c1c(NC(=O)CSc2nnc(C)s2)sc2c1CCCCC2"
  System under test: "Cytochrome P450 3A4 (Homo sapiens) (UniProt P08684)"
  activity, negative = inhibition: "-23.9% [at 2.29 µM] (inactive)"
- Compound: "Nc1nc(SCc2ccccc2Cl)cc(C(=O)O)n1"
  System under test: "Cytochrome P450 3A4 (Homo sapiens) (UniProt P08684)"
  activity, negative = inhibition: "-1.56% [at 11.4 µM] (inactive)"
- Compound: "C#CCOCCCC(=O)O"
  System under test: "Cytochrome P450 3A4 (Homo sapiens) (UniProt P08684)"
  activity, negative = inhibition: "0.116% [at 11.4 µM] (inactive)"
- Compound: "CCNC(=S)NNC(=O)c1cc(CC(C)C)nc2ccccc12"
  System under test: "Cytochrome P450 3A4 (Homo sapiens) (UniProt P08684)"
  activity, negative = inhibition: "-3.62% [at 2.29 µM] (inactive)"
- Compound: "CC(C)OC(=O)C1=C2SCC(=O)N2C(N)=C(C#N)C1"
  System under test: "Cytochrome P450 3A4 (Homo sapiens) (UniProt P08684)"
  activity, negative = inhibition: "-16.2% [at 11.4 µM] (inactive)"
- Compound: "O=C(O)[C@@H]1[C@@H](C(=O)Nc2ccccc2)[C@@H]2C=C[C@@H]1O2"
  System under test: "Cytochrome P450 3A4 (Homo sapiens) (UniProt P08684)"
  activity, negative = inhibition: "-5.39% [at 11.4 µM] (inactive)"
- Compound: "Nc1ccc(N=Nc2c(S(=O)(=O)O)cc3ccccc3c2S(=O)(=O)O)cc1"
  System under test: "Cytochrome P450 3A4 (Homo sapiens) (UniProt P08684)"
  activity, negative = inhibition: "5.34% [at 11.4 µM] (inactive)"
- Compound: "C[N+]1(C)CCO[C@](O)(c2ccccc2)C1"
  System under test: "Cytochrome P450 3A4 (Homo sapiens) (UniProt P08684)"
  activity, negative = inhibition: "-8.04% [at 11.4 µM] (inactive)"
- Compound: "COc1ccc(O[C@H]2C=C[C@@H](c3ccccc3)O[C@H]2COC(=O)N2CCCCC2)cc1"
  System under test: "Cytochrome P450 3A4 (Homo sapiens) (UniProt P08684)"
  activity, negative = inhibition: "-82.7% [at 11.4 µM] (inactive)"
- Compound: "CC[C@H]1CN(C)[C@H]2Cc3c([nH]c4ccccc34)C(=O)C[C@H]1[C@H]2C(=O)OC"
  System under test: "Cytochrome P450 3A4 (Homo sapiens) (UniProt P08684)"
  activity, negative = inhibition: "-21.4% [at 11.4 µM] (inactive)"
